Target protein (sequence): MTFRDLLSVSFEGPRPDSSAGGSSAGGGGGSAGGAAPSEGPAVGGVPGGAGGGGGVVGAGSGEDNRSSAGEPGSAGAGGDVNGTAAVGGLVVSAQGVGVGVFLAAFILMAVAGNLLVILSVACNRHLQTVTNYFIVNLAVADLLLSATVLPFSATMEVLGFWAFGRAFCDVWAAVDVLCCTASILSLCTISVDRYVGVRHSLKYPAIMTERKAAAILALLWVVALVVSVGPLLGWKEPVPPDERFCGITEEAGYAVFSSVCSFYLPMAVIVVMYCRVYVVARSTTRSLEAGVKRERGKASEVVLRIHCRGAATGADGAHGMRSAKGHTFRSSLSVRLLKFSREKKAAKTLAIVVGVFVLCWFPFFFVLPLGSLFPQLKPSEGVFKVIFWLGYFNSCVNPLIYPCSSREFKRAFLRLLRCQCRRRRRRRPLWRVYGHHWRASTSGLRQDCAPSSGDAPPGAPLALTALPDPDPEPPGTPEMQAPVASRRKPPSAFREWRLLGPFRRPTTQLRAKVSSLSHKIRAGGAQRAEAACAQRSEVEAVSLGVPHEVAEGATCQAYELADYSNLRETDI
measurement name: Ki

Req: Look up and state reported Ki for COc1ccccc1N1CCN(CCN(C(=O)C2CCCCC2)c2ccccc2[N+](=O)[O-])CC1
Resp: 5.7 nM

----------
- tested target: Alpha-1B adrenergic receptor (Homo sapiens)
- Sequence (P35368 whole entry): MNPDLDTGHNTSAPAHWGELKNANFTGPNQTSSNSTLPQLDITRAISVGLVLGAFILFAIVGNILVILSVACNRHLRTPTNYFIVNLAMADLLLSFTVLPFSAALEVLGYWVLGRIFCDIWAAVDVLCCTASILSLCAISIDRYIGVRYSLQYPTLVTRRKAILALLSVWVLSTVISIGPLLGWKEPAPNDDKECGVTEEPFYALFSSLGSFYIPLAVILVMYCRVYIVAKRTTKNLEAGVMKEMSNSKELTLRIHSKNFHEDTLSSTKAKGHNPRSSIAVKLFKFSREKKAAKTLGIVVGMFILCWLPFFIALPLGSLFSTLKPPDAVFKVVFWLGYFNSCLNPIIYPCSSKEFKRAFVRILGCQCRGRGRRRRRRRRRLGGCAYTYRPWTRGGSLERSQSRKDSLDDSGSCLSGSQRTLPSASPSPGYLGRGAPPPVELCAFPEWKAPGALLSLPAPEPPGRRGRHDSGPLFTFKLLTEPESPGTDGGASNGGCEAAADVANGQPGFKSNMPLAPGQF
measurement name: pKi
Answer as the number alone; pKi is minus log10 of concentration in mol/L.

Req: Look up and state reported pKi for COc1ccccc1N1CCN(CCN(C(=O)C2CCCCC2)c2ccccc2[N+](=O)[O-])CC1
Resp: 6.98

----------
- tested target: Alpha-1A adrenergic receptor (Homo sapiens, UniProt P35348)
- Sequence (P35348 whole entry): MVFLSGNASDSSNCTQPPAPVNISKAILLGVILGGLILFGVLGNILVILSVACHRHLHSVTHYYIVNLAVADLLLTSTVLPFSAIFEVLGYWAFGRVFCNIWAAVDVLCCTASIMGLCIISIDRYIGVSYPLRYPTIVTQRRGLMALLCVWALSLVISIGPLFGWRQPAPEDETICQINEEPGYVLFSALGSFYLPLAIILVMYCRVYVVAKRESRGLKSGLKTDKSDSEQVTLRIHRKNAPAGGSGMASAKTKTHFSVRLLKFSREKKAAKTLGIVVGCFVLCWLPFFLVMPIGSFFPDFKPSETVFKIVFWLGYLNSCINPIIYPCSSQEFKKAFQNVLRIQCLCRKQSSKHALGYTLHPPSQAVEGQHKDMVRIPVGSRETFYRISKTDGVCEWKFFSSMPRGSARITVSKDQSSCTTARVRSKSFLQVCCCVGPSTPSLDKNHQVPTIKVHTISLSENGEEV
measurement name: Ki (nM)
The answer is to be given in nM; state only the numeric part.

Req: Look up and state reported Ki for COc1ccccc1N1CCN(CCN(C(=O)C2CCCCC2)c2ccccc2[N+](=O)[O-])CC1
Resp: 81

Cited source: BindingDB's records for PubMed 11714892
